Would you kindly list 590 nm absorbance normalized to zero hour (substrate use), 2 hr for each of these compounds?
Tested on: NHBE cells
Assay: Biolog metabolic array: substrate use by NHBE cells with or without CA09 infection
Format: cell-based, human
Details: Virus: CA09-infected NHBE cells, MOI 1; Biolog PMM2; 2 hr
Output: the number by itself.

[in] GET /values?readout=590 nm absorbance normalized to zero hour (substrate use), 2 hr&system=NHBE cells&item= O=C(CO)[C@@H](O)[C@@H](O)[C@H](O)CO
[out] 0.24

[in] // repeat for Nc1ncnc2c1ncn2[C@@H]1O[C@H](CO)[C@@H](O)[C@H]1O and report
[out] 1.23

[in] // repeat for O[C@H]1[C@H](O)[C@@H](O)[C@H](O)[C@@H](O)[C@H]1O and report
[out] 0.66

[in] // repeat for O=C(O)C(O)C(O)C(=O)O (stereo not drawn) and report
[out] 1.66

[in] // repeat for OC[C@H]1O[C@@H](O[C@H]2[C@H](O)[C@@H](O)[C@H](O)O[C@@H]2CO)[C@H](O)[C@@H](O)[C@@H]1O and report
[out] 2.09

[in] // repeat for O=C(O)CCC(=O)O and report
[out] 2.01

[in] // repeat for OC[C@@H](O)[C@@H](O[C@H]1O[C@H](CO)[C@@H](O)[C@H](O)[C@H]1O)[C@H](O)[C@@H](O)CO and report
[out] 1.03

[in] // repeat for O=C(CO)[C@@H](O)[C@H](O)[C@@H](O)CO and report
[out] 0.23

[in] // repeat for O=C(CO)[C@@H](O)[C@H](O)[C@H](O)CO and report
[out] 0.58

----------
Tested on: NHBE cells
Test: Biolog metabolic array: substrate use by NHBE cells with or without CA09 infection
Type: cell-based, human
Conditions: Virus (CA09-infected, MOI 1) NHBE cells, 8 hr
Would you kindly list 590 nm absorbance normalized to zero hour (substrate use), 8 hr for each of these compounds?
Output: the number by itself.

[in] Request the reported 590 nm absorbance normalized to zero hour (substrate use), 8 hr associated with O=P(O)(O)OC[C@H](O)CO (racemic) [D,L-a-Glycerol Phosphate]
[out] 4.43

[in] // repeat for OC[C@H]1O[C@H](O[C@H]2O[C@H](CO)[C@@H](O)[C@H](O)[C@H]2O)[C@H](O)[C@@H](O)[C@@H]1O [D-Trehalose] and report
[out] 2.93

[in] // repeat for CC(O)CO (stereo not shown) [1,2-Propanediol] and report
[out] 3.87

[in] // repeat for OC[C@@H](O)[C@@H](O[C@@H]1O[C@H](CO)[C@H](O)[C@H](O)[C@H]1O)[C@H](O)[C@@H](O)CO [Lactitol] and report
[out] 3.76

----------
Tested on: NHBE cells
Experiment: Biolog metabolic array: substrate use by NHBE cells with or without CA09 infection
Assay type: cell-based, human
Conditions: Virus (CA09-infected, MOI 1) NHBE cells, 8 hr
Use 4 as the dividing line for 590 nm absorbance normalized to zero hour (substrate use), 8 hr, with the line itself on the 1 (yes) side and lower values as 0 (no).

[in] Given C[C@@H](O)CC(=O)O [b-Hydroxy-Butyric Acid] , state whether its 590 nm absorbance normalized to zero hour (substrate use), 8 hr is at least 4.
[out] 0 (no)

[in] // repeat for CC(=O)N[C@@H]1C(O)O[C@H](CO)[C@@H](O)[C@@H]1O (stereo partly drawn) [N-Acetyl-D-Mannosamine] and report
[out] 0 (no)

[in] // repeat for CC(=O)CC(=O)O [Acetoacetic Acid] and report
[out] 0 (no)

[in] // repeat for CO[C@@H]1O[C@H](CO)[C@@H](O)[C@H](O)[C@H]1O [b-Methyl-D-Glucoside] and report
[out] 1 (yes)

[in] // repeat for O=C[C@H](O)[C@@H](O)[C@H](O)[C@H](O)COP(=O)(O)O [D-Glucose-6-Phosphate] and report
[out] 1 (yes)

[in] // repeat for OC[C@@H](O)[C@@H](O)[C@H](O)[C@H](O)CO [D-Mannitol] and report
[out] 0 (no)

[in] // repeat for NC(=O)CCC(=O)O [Succinamic Acid] and report
[out] 0 (no)

[in] // repeat for OC[C@H]1O[C@@H](O[C@H]2[C@H](O)[C@@H](O)[C@H](O)O[C@@H]2CO)[C@H](O)[C@@H](O)[C@@H]1O [D-Cellobiose] and report
[out] 0 (no)

[in] // repeat for OC[C@H]1O[C@H](OCC2O[C@@H](O)[C@H](O)[C@@H](O)[C@@H]2O)[C@H](O)[C@@H](O)[C@H]1O (stereo partly drawn) [D-Melibiose] and report
[out] 0 (no)
